# Measurement notes: Urinary excretion for the compound was evaluated as percent dose excreted at 200 mg/kg oral dosage in human
# Assay type: ADME, organism-based
# Set-up: dose 200 mg/kg, route oral
# Test parameters: urine
Recorded endpoint: dose excreted (%)

[[record]]
substance_smiles = "CN1CCN(c2c(F)cc3c(=O)c(C(=O)O)cn4c3c2SCC4)CC1"
uom = "%"
recorded_result = 55


* * *

# System: Morganella morganii
# Measurement notes: In vitro antibacterial activity against clinical isolates of Proteus morganii 27 (gram negative) by agar dilution assay.
# Assay type: functional
Examples of molecules with documented MIC follow.
Recorded endpoint: MIC

[[record]]
substance_smiles = "O=C(O)c1cn2c3c(c(Cl)c(N4CCOCC4)cc3c1=O)SCC2"
recorded_result = "> 50 mg/L"

[[record]]
substance_smiles = "CCOC(=O)N1CCN(c2c(F)cc3c(=O)c(C(=O)O)cn4c3c2SCC4)CC1"
recorded_result = "> 50 mg/L"

[[record]]
substance_smiles = "CN1CCN(c2cc3c(=O)c(C(=O)O)cn4c3c(c2Cl)SCC4)CC1"
recorded_result = "> 50 mg/L"

[[record]]
substance_smiles = "O=C(O)c1cn2c3c(cccc3c1=O)S(=O)(=O)CC2"
recorded_result = "> 100 mg/L"

[[record]]
substance_smiles = "O=C(O)c1cn2c3c(c(Cl)c(N4CCNCC4)cc3c1=O)SCC2"
recorded_result = "> 50 mg/L"

